Reported residual activity values for the following compounds.
target: Aurora kinase C (Homo sapiens); settings: at 1 µM
Write the number in % without appending the unit.

Before answering, review these 8 worked examples.
COc1cc2ncnc(Nc3ccc(OCc4ccccc4)cc3)c2cc1OC :: 106
COc1ccc2c(c1)/C(=C/c1cnc[nH]1)C(=O)N2 :: 34
O=[N+]([O-])/C=C/c1ccc2c(c1)OCO2 :: 102
COc1cc(OC)c(/C=C2\C(=O)Nc3ccccc32)c(OC)c1 :: 83
COC(=O)[C@@]1(O)C[C@H]2O[C@]1(C)n1c3ccccc3c3c4c(c5c6ccccc6n2c5c31)C(=O)NC4 :: 2
CC(C)[C@H](CO)Nc1nc(Nc2cccc(Cl)c2)c2ncn(C(C)C)c2n1 :: 96
N/C(=N\[N+](=O)[O-])N/N=C\c1ccc(-c2cccc([N+](=O)[O-])c2)o1 :: 97
c1cc(-c2cnn3cc(-c4ccc(OCCN5CCCCC5)cc4)cnc23)ccn1 :: 35

Item C[S+]([O-])c1ccc(-c2nc(-c3ccc(F)cc3)c(-c3ccncc3)[nH]2)cc1 (centres undefined) ; assay system Aurora kinase C (Homo sapiens); residual activity reported as 115

Data provenance is ChEMBL document CHEMBL2218924.
